- assay_summary: Plasma clearance in rhesus monkey at 0.5 mg/kg, iv
- Assay type: ADME, organism-based, Macaca mulatta
- Set-up: dose 0.5 mg/kg, route intravenous
value_type: clearance (mL/min/kg)
Hi! Could you send only the number? It should be in mL/min/kg, unit omitted.

Inquiry: Which measured clearance value corresponds to CC(C)(O)c1nc(-c2cccc3c2N(S(=O)(=O)c2ccc(OC(F)(F)F)cc2)Cc2ccc(C(F)(F)F)nc2N3)no1 ?
Reply text: 1.3

---

- assay_summary: Half life in dog at 0.5 mg/kg, iv
- Type: ADME, organism-based, Canis lupus familiaris
- Set-up: dose 0.5 mg/kg, route intravenous
- applied_conditions: in vivo
value_type: half-life (h)
Hi! Could you send only the number? It should be in h, unit omitted.

Inquiry: Which measured half-life value corresponds to CC(C)(O)c1nc(-c2cccc3c2N(S(=O)(=O)c2ccc(OC(F)(F)F)cc2)Cc2ccc(C(F)(F)F)nc2N3)no1 ?
Reply text: 18

---

- tested_on: Bombesin receptor subtype-3 (Homo sapiens) (UniProt P32247)
- Sequence (P32247 whole entry): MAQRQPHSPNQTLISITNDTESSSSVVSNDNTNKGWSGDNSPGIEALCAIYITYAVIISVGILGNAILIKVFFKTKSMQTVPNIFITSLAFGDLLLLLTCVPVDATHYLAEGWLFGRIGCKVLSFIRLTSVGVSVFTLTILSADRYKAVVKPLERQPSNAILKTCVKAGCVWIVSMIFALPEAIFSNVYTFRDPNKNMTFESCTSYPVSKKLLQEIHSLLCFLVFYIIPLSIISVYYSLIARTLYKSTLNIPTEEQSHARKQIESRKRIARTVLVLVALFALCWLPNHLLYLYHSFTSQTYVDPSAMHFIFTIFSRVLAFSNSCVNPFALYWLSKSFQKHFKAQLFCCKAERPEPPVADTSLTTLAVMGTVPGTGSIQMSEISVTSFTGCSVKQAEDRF
- assay_summary: Agonist activity at human BRS-3 expressed in HEK293AEQ cells assessed as bioluminescence for 10 mins by aequorin bioluminescence assay relative to dY-peptide
- Assay type: functional, cell-based
Entries annotated with measured Activity
Hi! Could you send only the number? It should be in %, unit omitted.

Inquiry: # returns recorded Activity (system: Bombesin receptor subtype-3 (Homo sapiens) (UniProt P32247)) for CC(C)(C)c1ccc(S(=O)(=O)N2Cc3ccc(C(F)(F)F)nc3Nc3cccc(-c4ncon4)c32)cc1
Reply text: 102

---

- tested_on: UniProt:P32247
- assay_summary: Displacement of [125I]-dY-peptide from human BRS-3 expressed in NFAT-CHO cells after 2 hrs by liquid scintillation counting
Labelling field: enter Yes if recorded IC50 is less than 2 nM. Enter No if it equals or exceeds that cut-off.

Solved cases below.
INSERT INTO assay_data (smiles_repr, group) VALUES
  ('CC(C)(O)c1nc(-c2cccc3c2N(S(=O)(=O)c2ccc(OC(F)F)cc2)Cc2ccc(C(F)(F)F)nc2N3)no1', 'No'),
  ('CC(C)(C)c1ccc(S(=O)(=O)N2Cc3ccc(C(F)(F)F)nc3Nc3cccc(-c4cccnc4)c32)cc1', 'Yes'),
  ('CC(C)(C)c1ccc(S(=O)(=O)N2Cc3ccc(C(F)(F)F)nc3Nc3cccc(-c4ncon4)c32)cc1', 'Yes'),
  ('CC(C)(C)c1ccc(S(=O)(=O)N2Cc3ccc(C(F)(F)F)nc3Nc3cccc(-c4noc(CO)n4)c32)cc1', 'Yes'),
  ('C[C@@H](O)c1nc(-c2cccc3c2N(S(=O)(=O)c2ccc(C(C)(C)C)cc2)Cc2ccc(C(F)(F)F)nc2N3)no1', 'Yes');

Inquiry: Strictly below 2 nM: is that where IC50 of CC(C)(C)c1ccc(S(=O)(=O)N2Cc3ccc(C(F)(F)F)nc3Nc3cccc(C4CCNCC4)c32)cc1 sits?
Reply text: Yes

Inquiry: Strictly below 2 nM: is that where IC50 of C[C@H](O)c1nc(-c2cccc3c2N(S(=O)(=O)c2ccc(C(C)(C)C)cc2)Cc2ccc(C(F)(F)F)nc2N3)no1 sits?
Reply text: Yes

Inquiry: Strictly below 2 nM: is that where IC50 of CC(C)c1ccc(S(=O)(=O)N2Cc3ccc(C(F)(F)F)nc3Nc3cccc(-c4noc(C(C)(C)O)n4)c32)cc1 sits?
Reply text: Yes

Measured values drawn from ChEMBL document CHEMBL2163341 for this set.
